What MIC was measured for each of the following?
Tested on: M. kansasii CNCTC My 235/80 (ATCC 12478)
Experiment: Antimycobacterial microdilution MABA, M. kansasii
Format: cell-based, Mycobacterium kansasii
Conditions: Mycobacterium kansasii, ATCC12478; Middlebrook 7H9 with OADC, pH 6.6, MABA; read-out: M. kans. ATCC 12478 MIC

# return MIC for COc1ccc(C(=O)Nc2cncc(Cl)n2)cc1 , test system: M. kansasii CNCTC My 235/80 (ATCC 12478) > 100 µg/mL

# return MIC for O=C(Nc1cncc(Cl)n1)c1ccc(Cl)cc1 , test system: M. kansasii CNCTC My 235/80 (ATCC 12478) > 100 µg/mL

# return MIC for O=C(Nc1cnc(Cl)cn1)c1cccc(C(F)(F)F)c1 , test system: M. kansasii CNCTC My 235/80 (ATCC 12478) > 100 µg/mL

# return MIC for O=C(Nc1cncc(Cl)n1)c1cccc(C(F)(F)F)c1 , test system: M. kansasii CNCTC My 235/80 (ATCC 12478) 25 µg/mL

# return MIC for Cc1ccc(C(=O)Nc2cncc(Cl)n2)cc1 , test system: M. kansasii CNCTC My 235/80 (ATCC 12478) > 100 µg/mL

# return MIC for O=C(Nc1cncc(Cl)n1)c1ccccc1 , test system: M. kansasii CNCTC My 235/80 (ATCC 12478) > 100 µg/mL

# return MIC for COc1cccc(C(=O)Nc2cncc(Cl)n2)c1 , test system: M. kansasii CNCTC My 235/80 (ATCC 12478) 100 µg/mL

# return MIC for CCc1ccc(C(=O)Nc2cncc(Cl)n2)cc1 , test system: M. kansasii CNCTC My 235/80 (ATCC 12478) > 100 µg/mL
